Source of measurements: the RNAGym collection of RNA variant scans (doi:10.1093/nar/gkz1192)

B1: CPEB3 Ribozyme (parent)
chain: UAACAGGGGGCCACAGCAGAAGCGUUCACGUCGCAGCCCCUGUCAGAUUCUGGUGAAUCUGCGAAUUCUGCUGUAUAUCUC

Variants of: B1
Test summary: self-cleavage, relative activity (ratio to wild type); higher = more cleavage; in vitro, sequencing
Binary classification by self-cleavage, with 0.2 as an inclusive lower bound for satisfied; all other cases are not satisfied.

Hi team, for `UAACAGGGGGCCACAGCAGAAGCGUUCACGUCGCAGCCCCUGUCAAAUUUUGGUGAAUCUGCGAAUUCUGCUGUAUAUCUC` , is the recorded self-cleavage at or above 0.2?
not satisfied

Hi team, for `UAGCAGGGGGCCACAGCAGAAGCGUUCACGUCGCAGCCCCUGUCAGAUUCUGGUGAAUCUGCGAACUCUGCUGUAUAUCUC` , is the recorded self-cleavage at or above 0.2?
satisfied

Hi team, for `UAACAGGGGGCCACAGCAGAAGCGUUCACGUCGCAGCUCCUGUCAGAUUCUGGUGAACCUGCGAAUUCUGCUGUAUAUCUC` , is the recorded self-cleavage at or above 0.2?
not satisfied

Hi team, for `UAACAGGGGGCCACAGCAGAAGCGUUCACGUCGCAGCCCCUGUCAGAUCCUGGUGAAUCUGAGAAUUCUGCUGUAUAUCUC` , is the recorded self-cleavage at or above 0.2?
not satisfied

Hi team, for `UAACAGGGGGCCACACCAGAAGCGUUCACGCCGCAGCCCCUGUCAGAUUCUGGUGAAUCUGCGAAUUCUGCUGUAUAUCUC` , is the recorded self-cleavage at or above 0.2?
not satisfied

Hi team, for `UAACAGGGGGCCACAGCAGAAGCGUUCGCGUCGCAACCCCUGUCAGAUUCUGGUGAAUCUGCGAAUUCUGCUGUAUAUCUC` , is the recorded self-cleavage at or above 0.2?
not satisfied

Hi team, for `UAACAGGGGACCACAGCAGAAGAGUUCACGUCGCAGCCCCUGUCAGAUUCUGGUGAAUCUGCGAAUUCUGCUGUAUAUCUC` , is the recorded self-cleavage at or above 0.2?
not satisfied

Hi team, for `UAACAGGGGGCCACGGCAGAAGCGUUCACGUCGCAGCCCCUGUCAGAUUCUGGUGAACCUGCGAAUUCUGCUGUAUAUCUC` , is the recorded self-cleavage at or above 0.2?
satisfied

Hi team, for `UAACAGGGGGCCACAGCAGAAGCGUUCACGUCGCGGCCCCUGUCAGAUACUGGUGAAUCUGCGAAUUCUGCUGUAUAUCUC` , is the recorded self-cleavage at or above 0.2?
satisfied

Hi team, for `UAACAGGGGGCUACAGCGGAAGCGUUCACGUCGCAGCCCCUGUCAGAUUCUGGUGAAUCUGCGAAUUCUGCUGUAUAUCUC` , is the recorded self-cleavage at or above 0.2?
satisfied

Hi team, for `UAACAGGGGGCCACAGCAGAAGCGUUCACGUCGCAGCUCCUGUCAGAUUCUGGUGAAUCUGCGAAUUCAGCUGUAUAUCUC` , is the recorded self-cleavage at or above 0.2?
satisfied
